Each record here notes measured pEC50.
molecular target: CFTR (F508del/MF-HBE cells) (Homo sapiens, UniProt P13569, DEL508-508); construct: human bronchial epithelial (HBE) cells derived from CF subjects heterozygous for F508del and a minimal function CFTR mutation; endogenous in cells; assay: Ussing chamber assay of CFTR-mediated short-circuit currents (identification of potentiator compounds); conditions: CFTR-mediated ISC in F508del/MF-HBE cells; incubated 18-24 hours at 37° C. with 10 μM (14S)-8-[3-(2-{dispiro[2.0.2.1]heptan-7-yl}ethoxy)-1H-pyrazol-1-yl]-...-2,2,4-trione, 20% human serum
Sequence (P13569 with tags, fused parts or gaps DEL508-508): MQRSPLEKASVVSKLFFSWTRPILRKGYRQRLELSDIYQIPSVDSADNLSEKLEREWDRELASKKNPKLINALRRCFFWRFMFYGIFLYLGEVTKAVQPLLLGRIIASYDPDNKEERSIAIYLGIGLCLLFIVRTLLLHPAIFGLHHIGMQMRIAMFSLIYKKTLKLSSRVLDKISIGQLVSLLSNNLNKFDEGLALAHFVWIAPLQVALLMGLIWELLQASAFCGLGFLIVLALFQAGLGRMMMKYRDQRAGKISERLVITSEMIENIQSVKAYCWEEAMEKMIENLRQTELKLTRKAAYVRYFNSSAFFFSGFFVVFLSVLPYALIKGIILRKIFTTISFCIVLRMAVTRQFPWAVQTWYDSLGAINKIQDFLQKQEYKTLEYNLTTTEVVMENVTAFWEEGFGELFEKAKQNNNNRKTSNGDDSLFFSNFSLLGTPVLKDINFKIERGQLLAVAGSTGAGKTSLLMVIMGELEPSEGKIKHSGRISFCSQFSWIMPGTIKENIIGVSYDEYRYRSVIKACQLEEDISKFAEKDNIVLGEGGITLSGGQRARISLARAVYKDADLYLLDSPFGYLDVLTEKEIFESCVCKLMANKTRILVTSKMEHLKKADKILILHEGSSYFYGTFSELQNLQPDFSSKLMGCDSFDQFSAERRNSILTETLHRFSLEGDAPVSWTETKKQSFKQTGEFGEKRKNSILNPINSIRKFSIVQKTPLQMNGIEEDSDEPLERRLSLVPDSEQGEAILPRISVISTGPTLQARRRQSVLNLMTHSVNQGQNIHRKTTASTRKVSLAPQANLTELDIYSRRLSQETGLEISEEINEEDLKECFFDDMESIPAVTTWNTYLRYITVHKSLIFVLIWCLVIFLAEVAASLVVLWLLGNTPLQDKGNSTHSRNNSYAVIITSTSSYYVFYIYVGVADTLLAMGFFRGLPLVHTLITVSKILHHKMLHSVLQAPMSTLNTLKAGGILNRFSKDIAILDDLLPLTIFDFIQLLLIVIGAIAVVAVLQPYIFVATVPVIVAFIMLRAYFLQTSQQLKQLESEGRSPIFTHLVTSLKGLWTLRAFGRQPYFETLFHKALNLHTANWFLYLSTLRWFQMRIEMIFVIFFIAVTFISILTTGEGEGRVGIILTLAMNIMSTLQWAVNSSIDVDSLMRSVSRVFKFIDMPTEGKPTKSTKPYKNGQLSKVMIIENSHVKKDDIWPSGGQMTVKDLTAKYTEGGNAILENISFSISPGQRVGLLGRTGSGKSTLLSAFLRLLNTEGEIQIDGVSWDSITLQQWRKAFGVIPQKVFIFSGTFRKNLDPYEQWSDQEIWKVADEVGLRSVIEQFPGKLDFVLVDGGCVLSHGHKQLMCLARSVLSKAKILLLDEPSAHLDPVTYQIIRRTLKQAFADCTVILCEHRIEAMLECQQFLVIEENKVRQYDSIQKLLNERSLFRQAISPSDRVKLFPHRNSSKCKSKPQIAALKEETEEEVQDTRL
pEC50: −log10 of the molar value.
testReadout: pEC50

molecule	targetDesc	testValue
Nc1cc(C(F)(F)F)c2nc1-c1nnc(o1)[C@](O)(C(F)(F)F)c1cc(ccc1F)CCC[C@@H]1CCCN21	CFTR (F508del/MF-HBE cells) (Homo sapiens, UniProt P13569, DEL508-508)	> 6.30
Nc1cc(C(F)(F)F)c2nc1-c1nnc(o1)C(O)(C(F)(F)F)CCCCCC(CO)N2 (single isomer, unassigned) [Compound 103]	CFTR (F508del/MF-HBE cells) (Homo sapiens, UniProt P13569, DEL508-508)	> 6.30
Nc1cc(C(F)(F)F)c2nc1-c1nnc(o1)C(O)(C(F)(F)F)CCCCCCN2CCO (single isomer, unassigned)	CFTR (F508del/MF-HBE cells) (Homo sapiens, UniProt P13569, DEL508-508)	> 6.30
CCOC(=O)C1CCCCCC(O)(C(F)(F)F)C2=NN=C(O2)c2nc(c(C(F)(F)F)cc2N)N1 (single isomer, unassigned) [Compound 94]	CFTR (F508del/MF-HBE cells) (Homo sapiens, UniProt P13569, DEL508-508)	> 6.30
COc1cc2nc(c1N)-c1nnc(o1)C(O)(C(F)(F)F)CCCCC[C@@H]1CCCN21 (single isomer, unassigned) [Compound 159]	CFTR (F508del/MF-HBE cells) (Homo sapiens, UniProt P13569, DEL508-508)	< 6.00
Nc1cc(C(F)(F)F)c2nc1-c1nnc(o1)C(O)(C(F)(F)F)CCCCCC(CO)N2 (single isomer, unassigned) [Compound 104]	CFTR (F508del/MF-HBE cells) (Homo sapiens, UniProt P13569, DEL508-508)	> 6.30
Nc1cc(C(F)(F)F)c2nc1-c1nnc(o1)C(O)(C(F)(F)F)CCCCCCN2C1CCC1 (single isomer, unassigned)	CFTR (F508del/MF-HBE cells) (Homo sapiens, UniProt P13569, DEL508-508)	> 6.30
Nc1cc(C(F)(F)F)c2nc1-c1nnc(o1)C(O)(C(F)(F)F)c1cccc(n1)CCC[C@@H]1CCCN21 (single isomer, unassigned) [Compound 83]	CFTR (F508del/MF-HBE cells) (Homo sapiens, UniProt P13569, DEL508-508)	6.00 to 6.30

Hey, just so you know, these numbers are from patent US12324802B2.
